# System: T1, 3×FLAG-IL-6 (human)
# T1 construct: it may hold the pre-pro-trypsin leader
# T1 sequence (chain, as listed by the source limits assumed): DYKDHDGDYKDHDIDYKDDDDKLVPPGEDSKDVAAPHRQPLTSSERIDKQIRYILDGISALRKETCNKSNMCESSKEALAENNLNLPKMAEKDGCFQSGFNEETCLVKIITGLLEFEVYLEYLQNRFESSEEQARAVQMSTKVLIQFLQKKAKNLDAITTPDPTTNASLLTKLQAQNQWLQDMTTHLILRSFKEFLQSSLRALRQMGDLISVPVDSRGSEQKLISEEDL
# Protocol: SPR, 3×FLAG-IL-6 captured by anti-FLAG M2 on protein G, scFv as analyte (1-100 nM)
binders and their reported koff
Measured Metric: koff (s⁻¹)

Binder: 28D2 N-Aha (scFv, azidohomoalanine (Aha) in place of the single Met, at the N terminus, also called E. coli 28D2 scFv with Aha at the N term) scFv: MEDIQLTQSPSFLSASVGDRVTITCQASEDLFSSLAWYQQKPGKAPKLLIYSASTLASGVPSRFSGSGSGTDFTLTISSLQPEDFATYYCLGLYYYLTPDPIYGFGGGTKVEIKGGGGSGGGGSGGGGSGGGGSEVQLVESGGGLVQPGGSLRLSCTVSGLSLSKNAIAWVRQAPGKGLEWVGIIYAGGATTYASWAKGRFTISRDNSKNTLYLQLNSLRAEDTAVYYCAREYAGDSYYTGYTQLDLWGQGTLVTVSSGPPPPPHHHHHH
Measured Metric: koff
Unit Abbrev: s⁻¹
Reading: 8.99e-05
--
Binder: 28D2-L Aha (scFv, azidohomoalanine (Aha) in place of a single Met in the Gly/Ser linker between VL and VH, also called E. coli 28D2 scFv with Aha in the Gly/Ser linker) scFv: MADIQLTQSPSFLSASVGDRVTITCQASEDLFSSLAWYQQKPGKAPKLLIYSASTLASGVPSRFSGSGSGTDFTLTISSLQPEDFATYYCLGLYYYLTPDPIYGFGGGTKVEIKGGGGSGMGGSGGGGSGGGGSEVQLVESGGGLVQPGGSLRLSCTVSGLSLSKNAIAWVRQAPGKGLEWVGIIYAGGATTYASWAKGRFTISRDNSKNTLYLQLNSLRAEDTAVYYCAREYAGDSYYTGYTQLDLWGQGTLVTVSSGPPPPPHHHHHH
Measured Metric: koff
Unit Abbrev: s⁻¹
Reading: 6.88e-05
--
Binder: 28D2 humanized scFv (mammalian expressed) (scFv, also called 28D2 scFv) scFv: DIQLTQSPSFLSASVGDRVTITCQASEDLFSSLAWYQQKPGKAPKLLIYSASTLASGVPSRFSGSGSGTDFTLTISSLQPEDFATYYCLGLYYYLTPDPIYGFGGGTKVEIKGGGGSGGGGSGGGGSGGGGSEVQLVESGGGLVQPGGSLRLSCTVSGLSLSKNAIAWVRQAPGKGLEWVGIIYAGGATTYASWAKGRFTISRDNSKNTLYLQMNSLRAEDTAVYYCAREYAGDSYYTGYTQLDLWGQGTLVTVSSGPPPPHHHHHH
Measured Metric: koff
Unit Abbrev: s⁻¹
Reading: 0.0001
